Data provenance: patent US20230141198A1

- ASSAY TARGET: human opioid δ receptor (Homo sapiens)
- Sequence (P41143 whole entry): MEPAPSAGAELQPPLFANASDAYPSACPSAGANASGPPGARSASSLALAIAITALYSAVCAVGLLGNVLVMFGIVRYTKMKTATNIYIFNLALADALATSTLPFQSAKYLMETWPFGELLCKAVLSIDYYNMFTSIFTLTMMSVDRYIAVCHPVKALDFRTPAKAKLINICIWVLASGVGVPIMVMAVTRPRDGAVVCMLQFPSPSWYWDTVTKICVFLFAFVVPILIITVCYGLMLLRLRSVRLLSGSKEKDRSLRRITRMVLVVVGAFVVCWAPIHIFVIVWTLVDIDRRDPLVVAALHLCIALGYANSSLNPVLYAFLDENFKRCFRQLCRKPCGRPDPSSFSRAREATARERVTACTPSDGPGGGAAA
- ASSAY: Opioid receptor function test (agonist activity, Lance Ultra cAMP kit), δ receptor
- Method: Opioid Receptor Function Test Functional activity of the compound provided by the present invention on μ, δ, and κ opioid receptors was examined. Method: Using a Lance Ultra cAMP kit (Perkin Elmer), the functional activity was examined by a predetermined method. […] One hour later, time-resolved fluorescence measurement was performed using an EnVision plate reader (Perkin Elmer). […]
QUANTITY NAME: EC50 (nM)
Report the value in nM with no unit label.

Cc1c2c(nn1C1CCN(C)CC1)C[C@]13CCN(CC4CC4)[C@H](Cc4ccc(O)cc41)[C@]3(O)C2 [Compound 92]; 0.51
Cc1nn(CC2CC2)c2c1C[C@@]1(O)[C@H]3Cc4ccc(O)cc4[C@@]1(CCN3CC1CC1)C2 [Compound 45]; 0.75
Cc1nn(C2CCCC2)c2c1C[C@@]1(O)[C@H]3Cc4ccc(O)cc4[C@@]1(CCN3CC1CC1)C2 [Compound 86]; 0.12
Cc1c2c(nn1C1CCCCC1)C[C@]13CCN(CC4CC4)[C@H](Cc4ccc(O)cc41)[C@]3(O)C2 [Compound 33]; 0.14
O=c1c2c([nH]n1-c1ccccc1)C[C@]13CCN(CC4CC4)[C@H](Cc4ccc(O)cc41)[C@]3(O)C2 [Compound 68]; 1.4
Cc1c2c(nn1-c1ccccc1)C[C@]13CCN(CC4CC4)[C@H](Cc4ccc(O)cc41)[C@]3(O)C2 [Compound 20]; 0.89
Cc1c2c(nn1CC1CC1)C[C@]13CCN(CC4CC4)[C@H](Cc4ccc(O)cc41)[C@]3(O)C2 [Compound 46]; 0.17
Cc1nn(C2CCC2)c2c1C[C@@]1(O)[C@H]3Cc4ccc(O)cc4[C@@]1(CCN3CC1CC1)C2 [Compound 84]; 0.34

Incoming: Look up and state reported EC50 for Cc1nn(-c2ccccc2)c2c1C[C@@]1(O)[C@H]3Cc4ccc(O)cc4[C@@]1(CCN3C)C2 [Compound 61]
Outgoing: 15

Incoming: Look up and state reported EC50 for Cc1c2c(nn1C1CCC1)C[C@]13CCN(CC4CC4)[C@H](Cc4ccc(O)cc41)[C@]3(O)C2 [Compound 85]
Outgoing: 0.092

Incoming: Look up and state reported EC50 for Cc1nn(-c2ccccc2)c2c1C[C@@]1(O)[C@H]3Cc4ccc(O)cc4[C@@]1(CCN3CC1CC1)C2 [Compound 21]
Outgoing: 0.76

Incoming: Look up and state reported EC50 for Cc1nn(C(=O)c2ccccc2)c2c1C[C@@]1(O)[C@H]3Cc4ccc(O)cc4[C@@]1(CCN3CC1CC1)C2 [Compound 36]
Outgoing: 3.4

Incoming: Look up and state reported EC50 for Cc1c2c(nn1C1CCSCC1)C[C@]13CCN(CC4CC4)[C@H](Cc4ccc(O)cc41)[C@]3(O)C2 [Compound 90]
Outgoing: 0.092

Incoming: Look up and state reported EC50 for Cc1nn(-c2nccs2)c2c1C[C@@]1(O)[C@H]3Cc4ccc(O)cc4[C@@]1(CCN3CC1CC1)C2 [Compound 51]
Outgoing: 0.94

Incoming: Look up and state reported EC50 for Cc1nn(C2CCOCC2)c2c1C[C@@]1(O)[C@H]3Cc4ccc(O)cc4[C@@]1(CCN3CC1CC1)C2 [Compound 88]
Outgoing: 0.086
